molecular target: Alpha-bungarotoxin (Bungarus multicinctus) (UniProt P60615); experiment: alpha-bungarotoxin binders on microarray, profiling panel, artefact control for SMM control protein annotation, biochemical, small-molecule microarray, Alexa647 label, 635/667 nm fluorescence (AID 1117); details: alpha-BTX-A647 binding fluorescence, higher = more signal
Sequence (P60615 whole entry, looked up): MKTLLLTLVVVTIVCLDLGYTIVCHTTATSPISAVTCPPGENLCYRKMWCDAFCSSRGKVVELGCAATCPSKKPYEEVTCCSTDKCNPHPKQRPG
In this section we review reported composite z-score values for a set of molecules.
readout_kind: composite z-score

• C[C@@H]1CC[C@H]2C(=O)OC(Cc3ccccc3)CN2[C@H]1c1ccc(Br)cc1 (stereo not given in full) = 0.599
• CC(C)C(=O)N[C@H]1CCCN1C(=O)C=Cc1ccccc1 = 0.0359
• O=C1C2=CC[C@H]3C(=O)N(c4ccc(F)cc4F)C(=O)[C@H]3[C@H]2[C@H](O)[C@@H]2O[C@H]12 = 0.455
• C=CC[C@@H]1C=C[C@H](ON=CC[C@@H]2C=C[C@H](OC(C)=O)[C@@H](COC(C)=O)O2)[C@@H](CO)O1 = 1.86
• CCN1C(=O)[C@H]2[C@H]3[C@H](O)[C@H](O)CC(=NOC[C@@H](O)[C@H]4O[C@@H]5OC(C)(C)O[C@@H]5[C@H]4O)[C@@H]3CC[C@H]2C1=O = 0.0203

====

assay: splicing luciferase reporter signal modulators, primary screen, spliceosome inhibition project, cell-based, HEK293, splice +/- reporter (AID 1101); details: luminescence, 24 h, higher = more signal, called active from +8 up or from −8 down;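 further: HEK293 cells carrying a splicing-competent luciferase reporter gene; test concentration not given here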
Activity calls are given as the source filed them.
readout_kind: z-score

• COc1ccc(OC[C@@H](CO)OC)cc1 = 1.18 (inactive)
• Cc1cc(C)c(-c2cc([C@H](C)ON=C[C@@H](C)[C@H](OCc3ccccc3)C(C)C)on2)c(C)c1 = -0.34 (inactive)
• CC(C)=CCCC(C)=CCON=C1C[C@@H](O)[C@@H](O)[C@@H]2[C@@H]3C(=O)N([C@@H](C)c4ccccc4)C(=O)[C@@H]3CC[C@@H]12 = -0.168 (inactive)
• CC(CCN1CCc2nc(-c3ccccc3)c(-c3ccccc3)cc2C1)=NOC(C)CN1CCCc2nc(C)c(C)cc21 (stereo not drawn) = 1.12 (inactive)
• CC(C)(C)N1C(=O)[C@H]2[C@H]3[C@H](O)[C@H](O)CC(=NOC[C@@H](O)COCc4ccco4)[C@H]3CC[C@H]2C1=O = 1.13 (inactive)
• CCN1C(=O)[C@H]2[C@H]3[C@H](O)[C@H](O)CC(=NOCC=C(C)CCC=C(C)C)[C@@H]3CC[C@H]2C1=O = 0.486 (inactive)
• CCOC(=O)[C@H](Cc1ccccc1)NC(=O)CCC1CC(OC(=O)NCc2ccc3c(c2)OCO3)CC2(CCCC(COC(=O)NCCOc3ccccc3)O2)O1 (stereo partly drawn) = -1.13 (inactive)
• C[C@@H]1CC[C@H]2C(=O)OC(Cc3ccccc3)CN2[C@H]1c1ccc(Br)cc1 (stereo partly drawn) = 0.264 (inactive)

====

test system: Chordin-like protein 2 (CHRDL2); experiment: CHRDL2 small-molecule binders, primary screen, biochemical, small-molecule microarray, 635 nm fluorescence (AID 1126); conditions: small-molecule microarray binding, fluorescence 635 nm; higher = more signal;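 further: printed compound slides probed with Chrdl2 protein at 4 µg/mL for 1 h at 4 C; score merges 667 nm emission intensity with signal to noise over three replicate slides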
readout_kind: composite z-score

- CC(C)(C)N1C(=O)[C@H]2[C@H]3[C@H](O)[C@H](O)CC(=NOC[C@@H](O)COCc4ccco4)[C@@H]3CC[C@H]2C1=O: 0.107
- CN1CCc2nc(-c3ccccc3)c(-c3ccccc3)cc2C1: 0.58
- C=CC[C@@H]1C=C[C@H](Oc2ccc(C)cc2)[C@@H](COC(=O)NCc2cccc3ccccc23)O1: 0.338
- CCOC(=O)[C@H](Cc1ccccc1)NC(=O)CCC1CC(OC(=O)NCc2cccc3ccccc23)CC2(CCCC(COC(=O)NCCOc3ccccc3)O2)O1 (some centres not stated): 0.439
- CCCNC(=O)OC[C@H]1O[C@H](CCON=C[C@@H](C)[C@H](OCc2ccccc2)C(C)C)C=C[C@@H]1Oc1ccc(OC)cc1: 0.379
- CCOC(=O)[C@H](Cc1ccccc1)NC(=O)CCC1CC(OC(=O)NCCc2ccc(F)cc2)CC2(CCCC(COC(=O)NCc3cccc(C(F)(F)F)c3)O2)O1 (some centres not stated): 0.285
- CO[C@@H]1COC(=O)[C@H](CCSC)NC(=O)CC=C[C@@H](C)COC(=O)[C@@H]2CCCN2C(=O)CC=C[C@H]1C: 0.946

====

experiment: small-molecule microarray binders of probe aNog, primary screen, biochemical, biotinylated probe, 635/667 nm fluorescence (AID 1115); conditions: higher = more signal;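 further: probe is biotinylated aNog protein used at 0.15 µg/mL for 1 h at 4 C; z-score combines 667 nm fluorescence of each spot with its signal to noise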
readout_kind: composite z-score

* CC(CCC(=O)OC[C@H]1O[C@H](C#Cc2ccccc2)C=C[C@@H]1Oc1ccc(C)cc1)=NOC[C@@H](C)[C@H](OCc1ccccc1)C(C)C | -0.902
* CCN(CC)CC(O)CN1CCCCc2nc(C)c(C)cc21 (configuration not stated) | -0.0137
* COc1ccc(COC(=O)NN=C2C[C@@H](O)[C@@H](O)[C@@H]3[C@@H]4C(=O)N([C@@H](C)c5ccccc5)C(=O)[C@@H]4CC[C@@H]23)cc1 | -0.288
* CC(C)(C)N1C(=O)[C@H]2[C@H]3[C@H](O)[C@H](O)CC(=NNC(=O)OCc4ccccc4)[C@@H]3CC[C@H]2C1=O | -0.137
* CO[C@H]1COC(=O)[C@H](CCSC)NC(=O)CC=C[C@@H](C)[C@H](OC)COC(=O)[C@@H](OCc2ccccc2)C=C[C@@H]1C | -0.483
* COC(=O)CC=C[C@@H](C)[C@@H](C=NOC[C@@H](O)COCc1ccco1)OC | -0.353
* COC(=O)[C@H](C)NC(=O)CCC1CC(OC(=O)NCc2ccc3c(c2)OCO3)CC2(CCCC(COC(=O)NCCC(C)C)O2)O1 (some centres not stated) | -0.0047

====

Measured composite z-score accompanies every entry in the list below.
target: Albumin (Bos taurus) (UniProt P02769); experiment: bovine serum albumin binders on microarray, profiling panel, artefact control for SMM control protein annotation, biochemical, small-molecule microarray, Alexa647 label, 635/667 nm fluorescence (AID 1118); conditions: BSA-A647 binding, fluorescence 635 nm, higher = more signal;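 further: score merges 667 nm emission intensity and signal-to-noise per printed compound spot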
Sequence (P02769 whole entry, looked up): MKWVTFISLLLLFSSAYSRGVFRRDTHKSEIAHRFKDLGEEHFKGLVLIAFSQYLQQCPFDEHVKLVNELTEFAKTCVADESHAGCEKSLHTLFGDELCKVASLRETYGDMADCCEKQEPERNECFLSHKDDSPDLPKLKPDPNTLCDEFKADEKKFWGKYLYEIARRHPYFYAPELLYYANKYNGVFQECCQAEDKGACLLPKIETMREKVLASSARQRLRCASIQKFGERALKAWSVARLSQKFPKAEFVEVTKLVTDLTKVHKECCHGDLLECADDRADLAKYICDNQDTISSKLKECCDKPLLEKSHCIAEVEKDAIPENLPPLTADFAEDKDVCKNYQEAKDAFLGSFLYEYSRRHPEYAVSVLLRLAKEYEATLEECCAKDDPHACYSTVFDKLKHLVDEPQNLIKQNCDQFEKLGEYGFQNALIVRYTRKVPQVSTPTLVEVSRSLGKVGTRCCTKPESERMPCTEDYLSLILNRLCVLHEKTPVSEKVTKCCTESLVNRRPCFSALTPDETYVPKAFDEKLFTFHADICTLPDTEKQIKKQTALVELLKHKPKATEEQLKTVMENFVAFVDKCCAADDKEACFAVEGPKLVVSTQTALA
readout_kind: composite z-score

- CON=C1c2cc(OC)ccc2O[C@H](c2cccc(OC)c2)[C@H]1O: -0.181
- CC(=O)OC[C@H]1O[C@H](CC=NO[C@H](C)c2cn([C@@H]3COC[C@H]3O)nn2)C=C[C@@H]1OC(C)=O: 0.834
- CCOC(=O)CCN1C(=O)[C@H]2[C@H]3[C@H](O)[C@H](O)CC(=O)[C@@H]3CC[C@H]2C1=O: 0.206
- CO[C@@H]1COC(=O)[C@H](COCc2ccccc2)NC(=O)CC=C[C@@H](C)[C@H](OC)COC(=O)[C@@H](C)NC(=O)CC=C[C@H]1C: -0.764
- COc1ccc(O[C@H]2C=C[C@@H](C#Cc3ccccc3)O[C@@H]2CO)cc1: 0.271
- CON=C(C)CCN1CCCc2nc(C)c(C)cc21: -0.353
- C[C@H]1CC[C@@H](C(=O)O)N[C@@H]1c1ccc(C#Cc2ccccc2)cc1: 0.213
- CCOC(=O)[C@H](Cc1ccccc1)NC(=O)CCC1CC(OC(=O)NCc2cccc3ccccc23)CC2(CCCC(COC(=O)NCC3CCCCC3)O2)O1 (some centres undefined): -0.112
- CC(C)=NOC(C)CN1CCCCc2nc(C)c(C)cc21 (centres undefined): 0.673

====

molecular target: NADPH oxidase 4 (Homo sapiens); assay: NOX4-dependent H2O2 signal modulators, primary screen, NOX inhibitor project, cell-based, HEK293-NOX4, tetracycline-induced, Amplex Red fluorescence (AID 1160); conditions: 45 min, higher = more signal, called active from +8 up or from −8 down
readout_kind: z-score

- CO[C@H]1COC(=O)[C@H](C)COC(=O)[C@H](C)NC(=O)CC=C[C@H]1C: 0.299
- CC(C)=NO[C@H](C)c1cn([C@@H]2COC[C@H]2O)nn1: 0.549
- C=CC[C@@H]1C=C[C@H](Oc2ccc(C)cc2)[C@@H](COC(=O)NCc2cccc3ccccc23)O1: -0.187
- CO[C@@H]1COC(=O)CC=C[C@H](C)[C@H](OC)COC(=O)[C@@H]2CCCN2C(=O)CC=C[C@H]1C: -0.686
- CO[C@H]1COC(=O)CCC[C@H](C)[C@@H](OC)COC(=O)CC=C[C@@H]1C: -0.0115
- CCOC(=O)NN=C1C[C@@H](O)[C@@H](O)[C@@H]2[C@@H]3C(=O)N(c4ccc(F)cc4F)C(=O)[C@@H]3CC[C@H]12: -1.81
- CCOC(=O)[C@H](Cc1ccccc1)NC(=O)CCC1CC(OC(=O)NCCc2ccc(F)cc2)CC2(CCCC(COC(=O)NCCC(C)C)O2)O1 (stereo partly drawn): 0.397
- COc1ccc(COC(=O)NN=C2C[C@@H](O)[C@@H](O)[C@@H]3[C@@H]4C(=O)N(Cc5ccccc5)C(=O)[C@@H]4CC[C@@H]23)cc1: 0.284
